biological target: MurA (EPT E coli) (Escherichia coli); construct: made in house; test: Kinetic IC50 assay of MurA inhibition (Malachite Green), EPT E coli; format: biochemical; conditions: MurA enzyme, E coli; values given as ranges; read-out: IC50 EPT E coli
Sequence (P0A749 whole entry): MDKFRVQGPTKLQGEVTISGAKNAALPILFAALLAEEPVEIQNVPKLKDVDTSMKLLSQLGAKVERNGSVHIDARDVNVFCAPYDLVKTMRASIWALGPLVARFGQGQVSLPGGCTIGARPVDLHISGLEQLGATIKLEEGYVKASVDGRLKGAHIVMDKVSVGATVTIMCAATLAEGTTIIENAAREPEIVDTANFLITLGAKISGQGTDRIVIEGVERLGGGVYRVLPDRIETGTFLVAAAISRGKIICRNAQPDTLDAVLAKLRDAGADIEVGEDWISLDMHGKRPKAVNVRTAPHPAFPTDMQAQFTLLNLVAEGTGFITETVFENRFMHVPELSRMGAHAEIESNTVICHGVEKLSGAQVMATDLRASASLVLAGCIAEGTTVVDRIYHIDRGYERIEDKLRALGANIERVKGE
Assay Readout: IC50

> print(dat)
                                   molecule  assay.readout       reported
1  O=C(Oc1ccc(-c2ccc(O)cc2)cc1)c1cccc2c1NC(C(=O)O)C1CC=CC21 (centres unmarked)           IC50   90 to 110 µM
2  Cc1ccc(OCc2cccc3c2NC(C(=O)O)C2CC=CC32)cc1 (centres unmarked)           IC50       > 200 µM
3  O=C(Oc1ccc(-c2ccccc2)cc1Cl)c1cccc2c1NC(C(=O)O)C1CC=CC21 (centres unmarked)           IC50    30 to 50 µM
4  O=C(Oc1ccc(Cl)cc1)c1cccc2c1NC(C(=O)O)C1CC=CC21 (centres unmarked)           IC50  160 to 180 µM
5  NC(=O)c1cccc2c1NC(C(=O)O)C1CC=CC21 (centres unmarked)           IC50     5 to 20 µM
